biological target: recombinant human ACC2 (Homo sapiens (Human), UniProt O00763); assay: Measurement of inhibitory activity on human ACC2 (MALDI-TOF MS, acetyl CoA to malonyl CoA conversion); type: biochemical; conditions: Table 154
Sequence (O00763 27-2458): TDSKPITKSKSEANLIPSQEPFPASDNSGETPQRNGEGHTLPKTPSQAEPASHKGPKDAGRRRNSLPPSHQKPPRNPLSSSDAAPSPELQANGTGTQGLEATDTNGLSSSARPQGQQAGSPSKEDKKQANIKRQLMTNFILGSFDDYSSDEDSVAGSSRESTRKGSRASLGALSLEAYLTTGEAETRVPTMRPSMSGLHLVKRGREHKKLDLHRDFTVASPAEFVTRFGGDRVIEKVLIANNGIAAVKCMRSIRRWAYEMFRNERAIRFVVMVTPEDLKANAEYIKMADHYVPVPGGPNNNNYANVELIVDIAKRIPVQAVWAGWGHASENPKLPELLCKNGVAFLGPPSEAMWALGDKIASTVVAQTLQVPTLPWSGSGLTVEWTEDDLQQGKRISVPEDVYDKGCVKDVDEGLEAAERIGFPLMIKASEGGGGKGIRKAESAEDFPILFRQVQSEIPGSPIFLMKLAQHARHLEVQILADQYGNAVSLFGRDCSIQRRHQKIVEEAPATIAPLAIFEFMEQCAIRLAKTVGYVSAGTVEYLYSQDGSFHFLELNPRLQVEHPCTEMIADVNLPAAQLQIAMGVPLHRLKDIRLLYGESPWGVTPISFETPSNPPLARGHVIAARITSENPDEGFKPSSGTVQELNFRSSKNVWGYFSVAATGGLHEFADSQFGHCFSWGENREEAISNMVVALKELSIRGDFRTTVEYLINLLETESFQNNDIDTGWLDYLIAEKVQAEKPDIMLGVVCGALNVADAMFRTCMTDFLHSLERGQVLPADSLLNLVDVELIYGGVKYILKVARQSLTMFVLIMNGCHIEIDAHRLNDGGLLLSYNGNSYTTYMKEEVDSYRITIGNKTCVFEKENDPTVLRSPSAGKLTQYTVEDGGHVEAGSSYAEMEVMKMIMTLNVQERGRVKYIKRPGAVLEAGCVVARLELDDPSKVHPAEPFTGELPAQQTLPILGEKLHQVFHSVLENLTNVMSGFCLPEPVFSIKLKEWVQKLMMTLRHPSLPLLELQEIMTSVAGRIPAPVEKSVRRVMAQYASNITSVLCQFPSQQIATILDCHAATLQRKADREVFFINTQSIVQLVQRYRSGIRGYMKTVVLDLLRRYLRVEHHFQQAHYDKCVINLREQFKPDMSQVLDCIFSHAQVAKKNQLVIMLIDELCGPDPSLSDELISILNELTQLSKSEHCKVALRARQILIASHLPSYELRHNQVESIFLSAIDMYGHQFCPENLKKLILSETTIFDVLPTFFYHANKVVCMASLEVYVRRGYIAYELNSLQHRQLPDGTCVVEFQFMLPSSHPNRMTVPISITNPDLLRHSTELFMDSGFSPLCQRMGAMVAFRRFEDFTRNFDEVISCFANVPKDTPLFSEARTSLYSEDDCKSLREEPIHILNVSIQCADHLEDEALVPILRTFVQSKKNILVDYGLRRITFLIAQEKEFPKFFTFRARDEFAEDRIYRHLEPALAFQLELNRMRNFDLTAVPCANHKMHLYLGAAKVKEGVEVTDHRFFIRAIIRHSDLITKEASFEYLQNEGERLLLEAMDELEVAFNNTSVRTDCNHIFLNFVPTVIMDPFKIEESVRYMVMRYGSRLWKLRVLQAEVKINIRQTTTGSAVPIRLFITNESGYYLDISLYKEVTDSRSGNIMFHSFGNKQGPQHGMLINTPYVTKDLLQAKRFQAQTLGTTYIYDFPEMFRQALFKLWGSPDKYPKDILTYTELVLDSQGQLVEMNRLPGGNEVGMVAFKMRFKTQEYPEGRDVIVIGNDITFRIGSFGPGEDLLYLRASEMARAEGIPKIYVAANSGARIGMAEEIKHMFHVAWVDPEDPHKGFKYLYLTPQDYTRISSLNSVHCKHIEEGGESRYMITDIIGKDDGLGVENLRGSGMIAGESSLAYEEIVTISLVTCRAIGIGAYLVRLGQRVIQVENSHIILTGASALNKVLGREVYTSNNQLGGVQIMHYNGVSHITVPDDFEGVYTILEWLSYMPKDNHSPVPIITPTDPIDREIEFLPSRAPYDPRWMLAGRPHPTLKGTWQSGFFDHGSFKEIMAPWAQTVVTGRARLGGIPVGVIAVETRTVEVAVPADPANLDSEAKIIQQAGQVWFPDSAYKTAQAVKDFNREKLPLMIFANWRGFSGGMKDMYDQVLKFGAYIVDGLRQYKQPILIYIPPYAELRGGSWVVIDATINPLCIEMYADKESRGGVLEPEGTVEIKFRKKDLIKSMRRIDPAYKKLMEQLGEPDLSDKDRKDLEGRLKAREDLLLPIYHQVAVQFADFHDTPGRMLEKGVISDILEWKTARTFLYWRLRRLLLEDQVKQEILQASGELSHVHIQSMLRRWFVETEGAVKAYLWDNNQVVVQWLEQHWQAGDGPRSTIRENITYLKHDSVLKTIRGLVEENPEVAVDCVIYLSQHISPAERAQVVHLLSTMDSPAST
measuredAttribute: IC50

substanceSmiles: CC(=O)N[C@@H](C)COc1cnc(Oc2ccc(C(=O)N3CCCCC3)c(F)c2F)cn1
studySystem: recombinant human ACC2 (Homo sapiens (Human), UniProt O00763)
measuredResult: 775 nM

substanceSmiles: CCOc1nc2ccc(Oc3cnc(OC[C@H](C)NC(=O)CO)cn3)c(Cl)c2s1
studySystem: recombinant human ACC2 (Homo sapiens (Human), UniProt O00763)
measuredResult: 54 nM

substanceSmiles: CC(=O)N[C@@H](C)CC(=O)c1cnc(Oc2ccc(OCC3CC3)cc2Cl)s1
studySystem: recombinant human ACC2 (Homo sapiens (Human), UniProt O00763)
measuredResult: 770 nM

substanceSmiles: CCCc1ccc(Oc2ccc(OCC[C@H](C)NC(C)=O)cc2)c(Cl)c1
studySystem: recombinant human ACC2 (Homo sapiens (Human), UniProt O00763)
measuredResult: 1010 nM

substanceSmiles: CCOc1nc2ccc(OC[C@H]3C[C@H](OC[C@H](C)NC(C)=O)C3)cc2s1
studySystem: recombinant human ACC2 (Homo sapiens (Human), UniProt O00763)
measuredResult: 26 nM

---

Target: recombinant human ACC2 (Homo sapiens (Human))
Test: Measurement of inhibitory activity on human ACC2 (MALDI-TOF MS, acetyl CoA to malonyl CoA conversion)
Assay type: biochemical
Conditions: Tables 155-159
Excerpt: Preparation 1: Preparation of Recombinant Human ACC2 After a cDNA encoding human ACC2 (27 amino acid residue to 2458 amino acid residues from the N-terminus) was cloned from human kidney cDNA library (Clontech), human ACC2 gene containing His-tag sequence at 5′ terminus was inserted into pFastBac1 (Invitrogen). Recombinant baculovirus was generated using Bac-to-Bac baculovirus expression system (Invitrogen) according to the manufacturer's protocol. […]
pIC50: −log10 of the molar value.
measuredAttribute: pIC50

compound: C[C@@H](CO[C@H]1C[C@H](COc2ccc3nc(OCC(F)F)sc3n2)C1)NC(N)=O [Compound I-205]
measuredAttribute: pIC50
measuredResult: 7.60
--
compound: CC(=O)N[C@@H](C)CO[C@H]1CC[C@H](Oc2ncc3nc(N4CC(F)C4)sc3c2F)CC1 [Compound I-235]
measuredAttribute: pIC50
measuredResult: 7.66
--
compound: CC(=O)N[C@@H](C)CO[C@H]1CC[C@H](Oc2nc3c(Cl)cc(Br)cc3n2C)CC1 [Compound I-678]
measuredAttribute: pIC50
measuredResult: 6.91
--
compound: CC(=O)N[C@@H](C)CO[C@H]1C[C@H](COc2ncnc3c2ccn3Cc2ccccc2F)C1 [Compound I-472]
measuredAttribute: pIC50
measuredResult: 7.59
--
compound: CC(=O)N[C@@H](C)CO[C@H]1C[C@H](COc2nc3sc(N4CC(F)(F)C4)nc3cc2F)C1 [Compound I-268]
measuredAttribute: pIC50
measuredResult: 7.38
--
compound: CC(=O)N[C@@H](C)CO[C@H]1C[C@H](COc2nccc(OCC3CC3)c2Cl)C1 [Compound I-314]
measuredAttribute: pIC50
measuredResult: 7.60
--
compound: CC(=O)N[C@@H](C)CO[C@H]1C[C@H](COc2nccc(-c3ccc(F)cc3)c2F)C1 [Compound I-309]
measuredAttribute: pIC50
measuredResult: 7.62
--
compound: CC(=O)N[C@@H](C)CO[C@H]1C[C@H](COc2ncnc(OCc3ncc(C)s3)c2Cl)C1 [Compound I-410]
measuredAttribute: pIC50
measuredResult: 7.82
--
compound: C[C@@H](CO[C@H]1CC[C@H](Oc2nc3c(F)cc(OCC(F)F)c(F)c3n2C)CC1)NC(=O)COC(N)=O [Compound I-640]
measuredAttribute: pIC50
measuredResult: 6.96
--
compound: COc1ccc(COc2ncnc(OC[C@H]3C[C@H](OC[C@H](C)NC(C)=O)C3)c2Cl)cn1 [Compound I-348]
measuredAttribute: pIC50
measuredResult: 7.24
--
compound: CC(=O)N[C@@H](C)CO[C@H]1C[C@H](COc2ccc3nc(OCC4CC4)n(C)c3n2)C1 [Compound I-476]
measuredAttribute: pIC50
measuredResult: 7.13
--
compound: CC(=O)N[C@@H](C)CO[C@H]1C[C@@H](COc2ccc3nc(OCC(F)F)sc3n2)C1 [Compound I-217]
measuredAttribute: pIC50
measuredResult: 8.10
--
compound: CC(=O)N[C@@H](C)CO[C@H]1C[C@H](COc2ccc3nc(OCC(F)F)sc3n2)C1 [Compound I-169]
measuredAttribute: pIC50
measuredResult: 8.00
--
compound: CC(=O)N[C@@H](C)CO[C@H]1C[C@H](COc2ncnc(OCC(C)(F)F)c2Cl)C1 [Compound I-357]
measuredAttribute: pIC50
measuredResult: 6.99
--
compound: C[C@@H](CC[C@@H]1CC[C@@H](Oc2nc3c(F)cc(OCC(F)F)c(Cl)c3n2C)CO1)NC(N)=O [Compound I-674]
measuredAttribute: pIC50
measuredResult: 8.15
--
compound: CC(=O)N[C@@H](C)CO[C@H]1C[C@H](COc2ccc3nc(O[C@H]4CCOC4)sc3n2)C1 [Compound I-246]
measuredAttribute: pIC50
measuredResult: 7.33
--
compound: CC(=O)N[C@@H](C)CO[C@H]1CC[C@H](Oc2nc3c(Cl)cc(C4CC4)cc3n2C)CC1 [Compound I-648]
measuredAttribute: pIC50
measuredResult: 6.96
--
compound: CC(=O)N[C@@H](C)CO[C@H]1C[C@H](COc2ccc3nc(C(C)C)sc3c2F)C1 [Compound I-127]
measuredAttribute: pIC50
measuredResult: 7.08
--
compound: CCOc1ccc2nc(O[C@H]3CC[C@H](OC[C@H](C)NC(C)=O)CC3)n(C)c2c1 [Compound I-559]
measuredAttribute: pIC50
measuredResult: 7.37
--
compound: CC(=O)N[C@@H](C)CO[C@H]1CC[C@H](Oc2ccc3nc(OCC4CC4)sc3c2F)CC1 [Compound I-119]
measuredAttribute: pIC50
measuredResult: 8.40
--
compound: CCOc1nc2cc(Cl)c(OC[C@H]3C[C@H](OC[C@H](C)NC(C)=O)C3)nc2n1C [Compound I-488]
measuredAttribute: pIC50
measuredResult: 6.50
--
compound: CCOc1cc(F)c2nc(O[C@H]3CC[C@H](OC[C@H](C)NC(C)=O)CC3)n(C)c2c1F [Compound I-665]
measuredAttribute: pIC50
measuredResult: 8.40
--
compound: CCOc1ccc2nc(O[C@H]3CC[C@H](OC[C@H](C)NC(C)=O)CC3)n(C)c2c1C#N [Compound I-720]
measuredAttribute: pIC50
measuredResult: 6.11
--
compound: CC(=O)N[C@@H](C)CO[C@H]1CC[C@H](Oc2ccc3nc(OC4CC(F)(F)C4)n(C)c3n2)CC1 [Compound I-497]
measuredAttribute: pIC50
measuredResult: 7.82

---

target: recombinant human ACC2 (Homo sapiens (Human)); experiment: Measurement of inhibitory activity on human ACC2 (MALDI-TOF MS, acetyl CoA to malonyl CoA conversion); format: biochemical; conditions: Tables 155-159
pIC50: −log10 of the molar value.

substanceSmiles: CC(=O)N[C@@H](C)CO[C@H]1CC[C@H](Oc2nc3cnc(OC(C)C)cc3n2C)CC1
pIC50: 6.96
//
substanceSmiles: CC(=O)N[C@@H](C)CO[C@H]1CC[C@H](Oc2nc3c(C#N)cc(OCC(F)F)cc3n2C)CC1
pIC50: 6.20
//
substanceSmiles: CC(=O)N[C@@H](C)CO[C@H]1C[C@](F)(COc2ccc3nc(OC4CC4)sc3n2)C1
pIC50: 7.28
//
substanceSmiles: CC(=O)N[C@@H](C)CO[C@H]1C[C@H](COc2nc3sc(OCC(F)(F)F)nc3cc2F)C1
pIC50: 7.85

---

molecular target: recombinant human ACC2 (Homo sapiens (Human), UniProt O00763); assay: Measurement of inhibitory activity on human ACC2 (MALDI-TOF MS, acetyl CoA to malonyl CoA conversion); type: biochemical; conditions: Tables 155-159
Catalogue of molecules with associated log10(IC50)
measuredAttribute: log10(IC50) (log10 of the value in nM)

molecule: CC(=O)N[C@@H](C)CO[C@H]1CC[C@H](Oc2nc3c(Cl)cc(Oc4ccccc4)cc3n2C)CC1
measuredAttribute: log10(IC50)
measuredResult: 0.95

molecule: CC(=O)N[C@@H](C)CO[C@H]1CC[C@H](Oc2nc3c(F)c(C)c(OCC(F)F)c(F)c3n2C)CC1
measuredAttribute: log10(IC50)
measuredResult: 1.18

molecule: CC(=O)N[C@@H](C)CO[C@H]1C[C@H](COc2ncnc(OCc3csc(Cl)n3)c2Cl)C1
measuredAttribute: log10(IC50)
measuredResult: 2.97

molecule: CCOc1nc2ccc(OC[C@]3(F)C[C@@H](OC[C@H](C)NC(C)=O)C3)c(Cl)c2s1
measuredAttribute: log10(IC50)
measuredResult: 1.61

molecule: CC(=O)N[C@@H](C)CO[C@H]1CC[C@H](Oc2ccc3nc(OC4(C)CC4)n(C)c3n2)CC1
measuredAttribute: log10(IC50)
measuredResult: 1.79

molecule: CC(=O)N[C@@H](C)CO[C@H]1CC[C@H](Oc2ncc(-c3ncc(Cl)cn3)cc2C#N)CC1
measuredAttribute: log10(IC50)
measuredResult: 1.48

molecule: CC(=O)N[C@@H](C)CO[C@H]1C[C@H](COc2ncnc(OCc3ccccn3)c2Cl)C1 [Compound I-377]
measuredAttribute: log10(IC50)
measuredResult: 1.59

molecule: CC(=O)N[C@@H](C)CO[C@H]1CC[C@](F)(COc2ccc3nc(OCC4CC4)sc3n2)CC1
measuredAttribute: log10(IC50)
measuredResult: 1.23

molecule: CC(=O)N[C@@H](C)CO[C@H]1CC[C@H](Oc2nc3c(F)cc(OC4CC(F)(F)C4)c(F)c3n2C)CC1
measuredAttribute: log10(IC50)
measuredResult: 0.48

molecule: CC(=O)N[C@@H](C)CO[C@H]1C[C@H](COc2ccc3nc(O[C@H]4C[C@H](F)C4)sc3n2)C1
measuredAttribute: log10(IC50)
measuredResult: 1.08

molecule: CC(=O)N[C@@H](C)CO[C@H]1CC[C@H](Oc2nc3cnc(OCC4CC4)c(F)c3n2C)CC1
measuredAttribute: log10(IC50)
measuredResult: 0.70

molecule: CC(=O)N[C@@H](C)CO[C@H]1C[C@H](COc2nccc(NC(=O)c3ccccc3)c2Cl)C1
measuredAttribute: log10(IC50)
measuredResult: 1.54
